This collection of values is drawn from ChEMBL document CHEMBL3045116.

Tested on: MDCK
protocol_summary: Cytotoxicity against MDCK cells assessed as change in cellular morphology
Format: cell-based, Canis lupus familiaris
condition_context: dog, mdck
measure: CC50

Some solved entries appear below for comparison.
[[record]]
molecule_smiles = "NC12CC3CC(CC(C3)C1)C2"
measure = "CC50"
result = "> 500 µM"

[[record]]
molecule_smiles = "CCN(CC)CN1C(=O)/C(=N/NC(N)=S)c2ccccc21"
measure = "CC50"
result = "85.8 µM"

[[record]]
molecule_smiles = "CCN(CC)CN1C(=O)/C(=N/NC(=S)Nc2ccc(OC)cc2)c2cc(Cl)ccc21"
measure = "CC50"
result = "11.1 µM"

[[record]]
molecule_smiles = "CCN(CC)CN1C(=O)/C(=N/NC(=S)Nc2ccc(Cl)cc2)c2ccccc21"
measure = "CC50"
result = "0.4 µM"


Let us move to another entry and its CC50.
For "CCN(CC)CN1C(=O)/C(=N/NC(=S)Nc2ccc(OC)cc2)c2ccccc21" , what is its reported CC50?
9.2 µM

* * *

protocol_summary: Inhibition of beta lactamase assessed as time for decolorization of iodine (reference value: 79.5 secs)
Quick rule for you: TIME under 0.04 h gets class 1, anything else gets class 0.

Solved cases (5 shown):
[[record]]
molecule_smiles = "CCN(CC)CN1C(=O)/C(=N/NC(=S)Nc2ccccc2)c2cc(Cl)ccc21"
assigned_category = "class 0"

[[record]]
molecule_smiles = "CCN(CC)CN1C(=O)/C(=N/NC(=S)Nc2ccc(Cl)cc2)c2ccccc21"
assigned_category = "class 1"

[[record]]
molecule_smiles = "CCN(CC)CN1C(=O)/C(=N/NC(=S)Nc2ccccc2)c2ccccc21"
assigned_category = "class 0"

[[record]]
molecule_smiles = "CCN(CC)CN1C(=O)/C(=N/NC(N)=S)c2ccccc21"
assigned_category = "class 1"

[[record]]
molecule_smiles = "O=C(O)[C@H]1/C(=C/CO)O[C@@H]2CC(=O)N21"
assigned_category = "class 0"


# TODO verify TIME < 0.04 h strictly for this compound: "CCN(CC)CN1C(=O)/C(=N/NC(N)=S)c2cc(Cl)ccc21"
class 1

# TODO verify TIME < 0.04 h strictly for this compound: "CCN(CC)CN1C(=O)/C(=N/NC(=S)Nc2ccc(OC)cc2)c2cc(Cl)ccc21"
class 0

# TODO verify TIME < 0.04 h strictly for this compound: "CCN(CC)CN1C(=O)/C(=N/NC(=S)Nc2ccc(OC)cc2)c2ccccc21"
class 1

# TODO verify TIME < 0.04 h strictly for this compound: "CCN(CC)CN1C(=O)/C(=N/NC(=S)Nc2ccc(C)cc2)c2cc(Cl)ccc21"
class 1

* * *

pEC50 reference
System: Coxsackievirus B4
protocol_summary: Antiviral activity against Human coxsackievirus B4 infected human HeLa cells assessed as reduction of virus-induced cytopathic effect after 3 days by colorimetric formazan-based MTS assay
Type: functional, organism-based
condition_context: Enterovirus B, 72 h
pEC50: −log10 of the molar value.

Some solved entries appear below for comparison.
[[record]]
compound = "NC(=O)c1ncn([C@@H]2O[C@H](CO)[C@@H](O)[C@H]2O)n1 [RIBAVIRIN]"
result = 4.55

[[record]]
compound = "Nc1ncnc2c1ncn2C[C@H](O)CO [(S)-DHPA]"
result = "< 3.60"

[[record]]
compound = "CCN(CC)CN1C(=O)/C(=N/NC(=S)Nc2ccccc2)c2ccccc21"
result = "< 4.70"

[[record]]
compound = "CCN(CC)CN1C(=O)/C(=N/NC(=S)Nc2ccc(Cl)cc2)c2cc(Cl)ccc21"
result = "< 4.70"

[[record]]
compound = "CCN(CC)CN1C(=O)/C(=N/NC(=S)Nc2ccc(C)cc2)c2cc(Cl)ccc21"
result = "< 5.40"

[[record]]
compound = "CCN(CC)CN1C(=O)/C(=N/NC(N)=S)c2ccccc21"
result = "< 4.00"

[[record]]
compound = "CCN(CC)CN1C(=O)/C(=N/NC(=S)Nc2ccc(OC)cc2)c2ccccc21"
result = "< 5.40"

[[record]]
compound = "CCN(CC)CN1C(=O)/C(=N/NC(=S)Nc2ccc(Cl)cc2)c2ccccc21"
result = "< 5.40"


Let us move to another entry and its pEC50.
For "CCN(CC)CN1C(=O)/C(=N/NC(N)=S)c2cc(Cl)ccc21" , what is its reported pEC50?
< 4.00
